Where do the numbers come from? From patent US7329737.

target: hK1 (human tissue kallikrein 1), recombinant (human, UniProt P06870 25-262); test: cell-based or functional assay
Rule: IC50 (nM), inhibition of hK1 hydrolysis of Pro-Phe-Arg-AMC below 10 nM gives 1.0, anything at or above gives 0.0.

Below, 3 binders whose answers are already recorded.
{"binder": "M0097-G01 (Fab, V domains shown) VH: EVQLLESGGGLVQPGGSLRLSCAASGFTFSPYYMQWVRQAPGKGLEWVSGISSSGGSTQYADSVKGRFTISRDNSKNTLYLQMNSLRAEDTAVYYCARSQRRTYYPNFGDAFDIWGQGTMVTVSS VL: DIQMTQSPSSLSASVGDRVTITCRASQGIGNYLVWYQHKPGNVPRVLIYAASTLQSGVPSRFRGSGSGTDFTLTISGLQPEDVATYYCQKYDGAPFTFGPGTKVDLKR", "labelClass": 1.0}
{"binder": "M0106-G12 (Fab, V domains shown) VH: EVQLLESGGGLVQPGGSLRLSCAASGFTFSWYRMHWVRQAPGKGLEWVSSIWPSGGKTHYADSVKGRFTISRDNSKNTLYLQMNSLRAEDTAVYYCARALQYGSGSYFYAPKSYYYYGMDVWGQGTTVTVSS VL: DIQMTQSPSFVSASIGDRVTITCRASQSIGTLLNWYQHKPGTVPSLLIYGNLRGGVPARFSGSGSGTDFTLTISSLQPEDFATYYCQHDTFGGGTKVDIKR", "labelClass": 1.0}
{"binder": "M0139-F04 (Fab, V domains shown) VH: EVQLLESGGGLVQPGGSLRLSCAASGFTFSRYYMEWVRQAPGKGLEWVSSISSSGGSTEYADSVKGRFTISRDNSKNTLYLQMNSLRAEDTAVYYCAKDITPGGGSGFRLPKNYYYYGMDVWGQGTTVTVSS VL: DIQMTQSPSSLSASVGDRVTITCRASQAISTNLNWYQQKPGKAPKLLIYAASSLQSGVPSRFIGSGSGTDFTLTISSLHPEDFATYHCQQTFSPPHTFGQGTKVEIQR", "labelClass": 0.0}

Continue with the next binder.
Input: Take the binder M0138-C09 (Fab, V domains shown) VH: EVQLLESGGGLVQPGGSLRLSCAASGFTFSPYRMSWVRQAPGKGLEWVSVISPSGGITEYADSVKGRFTISRDNSKNTLYLQMNSLRAEDTAVYYCAKHERGSGYYVTPPAGAFDIWGQGTMVTVSS VL: AQSELTQPASVAGSPGQSITISCTGTSSDVGLYNFVSWYQQHPGKAPKLMIYDVSRRPSGVSNRFSASKSGTRASLTVSGLQAEDEADYYCSSYAGSNNYVFGTGTKVTVLG and say whether its IC50 (nM), inhibition of hK1 hydrolysis of Pro-Phe-Arg-AMC is less than 10 nM.
Output: 0.0
